- Test system: SF-295 CNS
- PROTOCOL NOTES: NCI-60 one-dose screen, 48 h (100 = growth as untreated, 0 = no growth, -100 = all killed)
- TEST PARAMETERS: 10 µM unless noted
About 83,000 compounds went through this panel and 20% of them were active in at least one assay; those are over-represented in the sample as a whole.
Kindly return Fulfilled if reported growth is no lower than 40%; return Not fulfilled if it is lower.

• O=S(=O)(NCCCNc1cc(-c2c(-c3cccc(O)c3)nc3sccn23)ccn1)c1cccc2ccccc12 = Not fulfilled

Decide: is the reported value of growth for `CSc1ccc2c(c1)c(CCN)c(C)n2Cc1ccc(Cl)c(Cl)c1` equal to or greater than 40%? Not fulfilled

Decide: is the reported value of growth for `C#C[C@]1(O)CC[C@H]2[C@@H]3CC=C4c5sc(Nc6cc(F)ccc6F)nc5CC[C@]4(C)[C@H]3CC[C@@]21C` equal to or greater than 40%? Not fulfilled

Decide: is the reported value of growth for `COc1ccc(/C=N/Nc2cc(=O)[nH]c3ccc(C)cc23)cc1` equal to or greater than 40%? Fulfilled

Decide: is the reported value of growth for `Cc1cc(=O)oc2cc(OC(=O)N3CCN(C)CC3)ccc12` equal to or greater than 40%? Fulfilled

Decide: is the reported value of growth for `COc1nc2ccccc2cc1-c1nc2c(cnn2-c2ccc(Br)cc2)c(=O)[nH]1` equal to or greater than 40%? Not fulfilled

Decide: is the reported value of growth for `CN1CCN(c2ccc(-c3ccc4ncc(C#N)c(Nc5ccc(F)c(Cl)c5)c4c3)cc2)CC1` equal to or greater than 40%? Fulfilled

---

- Test system: NCI-H23 lung
- PROTOCOL NOTES: NCI-60 one-dose screen, 48 h (100 = growth as untreated, 0 = no growth, -100 = all killed)
- TEST PARAMETERS: 10 µM unless noted
About 83,000 compounds went through this panel and 20% of them were active in at least one assay; those are over-represented in the sample as a whole.
Threshold 80%. growth below it: 1. growth at it or above: 0.

* CCCCC[C@H](O)C/C=C1/C(=O)C=C[C@@H]1C/C=C\CCCC(=O)O | 1
* COc1cc2cc(Oc3ccc(NC(=O)Nc4ccc(Cl)c(Cl)c4)cc3)c(C)nc2cc1OCCN1CCOCC1 | 1
* CCS(=O)(=O)c1ncnc2nc[nH]c12 | 0
* CCOc1cccc(NC2=C(Br)C(=O)C(C)=C(C)C2=O)c1 | 1
* COc1ccc(CNC(=O)C(=O)[C@H](Cc2ccccc2)NC(=O)c2[nH]c3ccccc3c(=O)c2C)cc1 | 0
* CCCCn1c(=O)c(-c2cc(-c3ccc(Cl)cc3)nc(-c3ccc(Cl)cc3)c2)cc2cc(Cl)ccc21 | 0
* N[C@@H](Cc1ccccc1)[C@@H](O)C(=O)NCc1ccc(F)cc1 | 0
* COc1cccc(-c2nc(-c3ccc(NC(=O)c4ccccc4)cc3)[nH]c2-c2ccnc(Br)c2)c1 | 1
* O=c1c2cccc(Cl)c2sc2c(NCCCNCCO)nc3ccccc3c12 | 1
* CC(C)OC(=O)Nc1ccc(-c2nc(-c3cccc(OCCN4CCOCC4)c3)c(-c3ccnc(Br)c3)[nH]2)cc1 | 1

API: query returns whether the compound falls strictly under 80% in growth. Query: `COc1ccc(N)c(N)c1` 0

API: query returns whether the compound falls strictly under 80% in growth. Query: `O=C1c2cccc3cccc(c23)C(=O)N1N1C(=O)c2cccc3c(NC4CCCCC4)ccc(c23)C1=O` 0

API: query returns whether the compound falls strictly under 80% in growth. Query: `O=C(Nc1ccc(I)cc1F)c1cc(I)ccc1O` 1

API: query returns whether the compound falls strictly under 80% in growth. Query: `CCCCCCCCCCCCCCCCCCOc1ccc(CC(=O)OCC[N+](C)(C)C)cc1` 0

API: query returns whether the compound falls strictly under 80% in growth. Query: NC1=NC(c2cccc(Br)c2)c2sc3ccc(Cl)cc3c2N1 (stereo unspecified) 0

API: query returns whether the compound falls strictly under 80% in growth. Query: `Cc1nc2nc(SCC(=O)O)[nH]c2c(=O)[nH]1` 0
